# System: HOP-62
# ASSAY_PROCEDURE: NCI tumour cell line growth inhibition, 48 h
Activity calls are given as the source filed them. Cut-off read from the data, not from the text of the source: active = GI50 up to about 1.1 µM and inactive = higher.

| MOLECULE | GI50 |
| --- | --- |
| CC(C)C1=C(O)C(=O)C2=C(C1=O)C(OC=O)C(O)C1C(C)(C)CCCC21C (stereo not given) | 37.6 µM (inactive) |
| CCOC(=O)c1cn(Cc2ccccc2)c(=O)n1Cc1ccccc1 | > 100 µM (inactive) |
| COC(=O)N[C@H](C(=O)NC(OCc1ccccc1)C1COC(C)(C)O1)C(C)O[Si](C)(C)C(C)(C)C (stereo not given in full) | 92.5 µM (inactive) |
| Cn1/c(=N\c2ccc(Cl)cc2)sc2ccccc21 | 71.3 µM (inactive) |
| COC1(OC)CC2C(=O)N(Cc3ccccc3)C1C(S(=O)(=O)c1ccccc1)C2S(=O)(=O)c1ccccc1 (stereo not given) | > 100 µM (inactive) |

###

# Tested on: KM12
# ASSAY_PROCEDURE: NCI tumour cell line growth inhibition, 48 h
Calls of active or inactive are those of the source. Rule as the data show it: active = GI50 up to about 1.1 µM and inactive = higher.

| MOLECULE | GI50 |
| --- | --- |
| Nc1nc(N)c(N=O)c(Nc2ccc(O)cc2)n1 | > 57.4 µM (inactive) |
| CCCCCCc1cc2cc(-c3csc(CC#N)n3)c(=O)oc2cc1O | 22.5 µM (inactive) |
| OC(C1CCCC1=N/N=C1/CCCC1C(O)(C(F)(F)Cl)C(F)(F)Cl)(C(F)(F)Cl)C(F)(F)Cl (stereo not given) | > 10 µM (inactive) |
| O=C(CBr)NCCc1c[nH]c2ccccc12 | 1.93 µM (inactive) |
| Cc1ccc(S(=O)(=O)N2CCCC2C(=O)O[C@H]2CC[C@H]3CC=C[C@H]32)cc1 (stereo not given in full) | > 100 µM (inactive) |
| C[C@H]1C(OCCOC2O[C@@H]3O[C@@]4(C)CC[C@H]5[C@H](C)CCC([C@H]2C)[C@@]35O4)O[C@@H]2O[C@@]3(C)CC[C@H]4[C@H](C)CCC1[C@@]24O3 (stereo not given in full) | 27.5 µM (inactive) |
| CCOP(=O)(OCC)[C@H](O)c1ccsc1 | > 100 µM (inactive) |
| Cc1nc2cc3ccccc3cc2[nH]c1=O | 85.1 µM (inactive) |
| Cn1c(=O)n(-c2c3ccccc3c(Cl)c3ccccc23)n(C(C)(C)C)c1=O | > 100 µM (inactive) |
| Clc1cc2nnn(C3CCCCO3)c2cc1Cl (stereo not given) | 86.3 µM (inactive) |

###

# System: MDA-MB-231
# ASSAY_PROCEDURE: NCI tumour cell line growth inhibition, 48 h
The source made the active and inactive calls. Cut-off read from the data, not from the text of the source: active = GI50 up to about 1.1 µM and inactive = higher.
Outcomes: 1 (yes) = active, 0 (no) = inactive

| COMPOUND | CLASS_ASSIGNMENT |
| --- | --- |
| FC(F)(Sc1nc2ccccc2[nH]1)c1nc2ccccc2o1 | 0 (no) |
| CCOC(=O)C1CN(C2CC2)CCC1=O (stereo not given) | 0 (no) |
| OC(C1CCCC1=N/N=C1/CCCC1C(O)(C(F)(F)Cl)C(F)(F)Cl)(C(F)(F)Cl)C(F)(F)Cl (stereo not given) | 0 (no) |
| Clc1cc2nnn(C3CCCCO3)c2cc1Cl (stereo not given) | 0 (no) |
| CC(C)=CC(=O)OC1C2C(C)=CC(=O)C(O)C2(C)C2C3(O)OCC24C(CC(=O)OC14)C(C)C3O (stereo not given) | 1 (yes) |
